Origin of measurements: patent US20250250357A1

Exercise: for every item that follows, state its recorded OD450.
biological target: T1, human MSLN-R3 protein (human, UniProt Q13421 487-598); test: ELISA on coated antigen, antibody 0.0001 nM
T1 construct: also called hMSLN-R3
T1 sequence (Q13421 495-606, form in doubt): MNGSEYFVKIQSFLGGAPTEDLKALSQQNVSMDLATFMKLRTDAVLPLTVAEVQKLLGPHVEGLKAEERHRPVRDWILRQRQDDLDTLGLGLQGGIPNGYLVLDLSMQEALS
One number for each entry, in OD450.

Count: 3. Required value per item: OD450.
1. F7.44.20-H14 (scFv, not shown: small tags and cut ends, also called S009-F7.44.20 humanized antibody VH2a + VL2) scFv: EVQLVQSGAEVKKPGASVKVSCKASGYTFTDYNMDWVRQAPGQGLEWMGDINPSTGGTIYNQKFSGRVTMTEDKSASTVYMELSSLRSEDTAVYYCARRRIGTGYFDVWGQGTTVTVSSGGGGSGGGGSGGGGSEIVLTQSPDFQSVTPKEKVTITCSASSSVISSYLSWYQQKPDQSPKLLIYRTSNLASGVPSRFSGSGSGTDYTLTINSLEAEDAATYYCHQWSSFPYTFGGGTKVEIK
2. F7.44.20-H16 (scFv, not shown: small tags and cut ends, also called S009-F7.44.20 humanized antibody VH2a + VL4) scFv: EVQLVQSGAEVKKPGASVKVSCKASGYTFTDYNMDWVRQAPGQGLEWMGDINPSTGGTIYNQKFSGRVTMTEDKSASTVYMELSSLRSEDTAVYYCARRRIGTGYFDVWGQGTTVTVSSGGGGSGGGGSGGGGSEIVLTQSPATLSLSPGERATLSCSASSSVISSYLSWYQQKPGSSPRLLIYRTSNLASGIPARFSGSGSGTDYTLTISSLEPEDFAVYYCHQWSSFPYTFGGGTKVEIK
3. Tab111 (scFv, not shown: small tags and cut ends, also called YP218 VL-(G4S)3-VH-his antibody; positive control) scFv: DVVMTQTPASVSEPVGGTVTIKCQASQRISSYLSWYQQKPGQRPKLLIFGASTLASGVPSRFKGSGSGTEYTLTISDLECADAATYYCQSYAYFDSNNWHAFGGGTEVVVGGGGSGGGGSGGGGSQQQLEESGGGLVKPEGSLTLTCKASGFDLGFYFYACWVRQAPGKGLEWIACIYTAGSGSTYYASWAKGRFTISKASSTTVTLQMTSLAAADTATYFCARSTANTRSTYYLNLWGPGTLVTVSS

[0.04, 0.04, 0.05]
